Source of measurements: the supplement of paper PMC12645437

Biological target: T1, CRBN, Q96SW2;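 further: pooled lentiviral library of zinc finger degron-EGFP fusions in mCherry-positive Jurkat cells, FACS-sorted after compound exposure, with degron abundance counted by next-generation sequencing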
T1 chain: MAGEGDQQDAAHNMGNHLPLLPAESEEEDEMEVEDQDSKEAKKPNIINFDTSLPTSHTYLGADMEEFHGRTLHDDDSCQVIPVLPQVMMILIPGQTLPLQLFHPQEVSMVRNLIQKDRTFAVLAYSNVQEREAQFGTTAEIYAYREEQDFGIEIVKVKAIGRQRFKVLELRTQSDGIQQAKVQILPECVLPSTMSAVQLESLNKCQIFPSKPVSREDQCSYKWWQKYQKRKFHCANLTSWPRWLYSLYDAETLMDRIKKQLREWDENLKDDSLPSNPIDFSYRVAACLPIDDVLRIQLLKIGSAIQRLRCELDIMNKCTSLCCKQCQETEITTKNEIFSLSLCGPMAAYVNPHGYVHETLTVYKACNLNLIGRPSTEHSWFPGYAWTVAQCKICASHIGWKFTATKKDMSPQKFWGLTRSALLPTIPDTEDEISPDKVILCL
Experiment: log2 fold change of degron read counts, EGFP-low vs EGFP+ sorted cells (limma voom), compound-induced degradation; higher = more compound-induced degradation of the degron-EGFP fusion; degrons are variants of IKZF1/3 zinc finger 2; compound dose not given here
Details: Jurkat; 18 h; compound: compound 19 (5-tert-butyl-thalidomide)
Over roughly 8,300 sequences, “log2 fold change of degron read counts, EGFP-low vs EGFP+ sorted cells (limma voom), compound-induced degradation” has its median near -1.1; the highest 2% begin near 3.2. The full list was thinned out, with the highest values kept by preference.
Overview of recorded log2 fold change of degron read counts for various sequences
The reply should be a number, written without any unit.

Solved entries (count: 5):
>  <QUERY SEQUENCE>
LLCPICGFTCTQKGNLLRHIKL [46L_47L_49P_50I_52G_53F_54T_55C_67L_, Q9UKT9]

>  <log2 fold change of degron read counts>
0.147

$$$$
>  <QUERY SEQUENCE>
FTCDICGAKFTQKGNLLRHIKL [46F_47T_49D_50I_52G_53A_54K_55F_67L_, Q9UKT9]

>  <log2 fold change of degron read counts>
-0.131

$$$$
>  <QUERY SEQUENCE>
LHCPICGFTCTQKGNLLRHIKL [46L_47H_49P_50I_52G_53F_54T_55C_67L_, Q9UKT9]

>  <log2 fold change of degron read counts>
2.75

$$$$
>  <QUERY SEQUENCE>
FTCNQCGHFFTQKGNLLRHIKL [46F_47T_49N_50Q_52G_53H_54F_55F_67L_, Q9UKT9]

>  <log2 fold change of degron read counts>
-1.82

$$$$
>  <QUERY SEQUENCE>
FSCNICGAGFTQKGNLLRHIKL [46F_47S_49N_50I_52G_53A_54G_55F_67L_, Q9UKT9]

>  <log2 fold change of degron read counts>
1.15

$$$$

input: Give its log2 fold change of degron read counts value. Item: FNCDICGAKFTQKGNLLRHIKL [46F_47N_49D_50I_52G_53A_54K_55F_67L_, Q9UKT9]
output: 0.554

input: Same lookup for FECNQCGAQFTQKGNLLRHIKL [46F_47E_49N_50Q_52G_53A_54Q_55F_67L_, Q9UKT9] , please.
output: -3.22

input: Same lookup for LTCPICGFTCTQKGNLLRHIKL [46L_47T_49P_50I_52G_53F_54T_55C_67L_, Q9UKT9] , please.
output: 1.57

input: Same lookup for LACEICGFMCTQKGNLLRHIKL [46L_47A_49E_50I_52G_53F_54M_55C_67L_, Q9UKT9] , please.
output: 2.65

input: Same lookup for FECPQCGAPFTQKGNLLRHIKL [46F_47E_49P_50Q_52G_53A_54P_55F_67L_, Q9UKT9] , please.
output: -2.11

input: Same lookup for FSCPQCGARFTQKGNLLRHIKL [46F_47S_49P_50Q_52G_53A_54R_55F_67L_, Q9UKT9] , please.
output: 0.264
